- subject of test: Knl1c:Mis12c^Mtw1c complex K^HB-RWDM^Dsn1Δ257_Mis12-3A (K^HB-RWDM^Dsn1Δ257 containing mutant … (S. cerevisiae, UniProt P53148 445-917)); Q04431 1-385; P40568 258-576; P39731 1-289; P47149 1-201; …, E69A | E73A | E77A (construct name; the text of the results says Asp77))
- assay remarks: ITC
pKd: −log10 of the molar value.
measurement kind: pKd

binder | assay result
Ac-PHYIQRTRERKKSIGSQRGRRLSMLASGSAW-NH2 [Dsn1^228–254 peptide] | 5.39

Reference source: paper PMC13065467
